# procedure.details: NCI Yeast Anticancer Drug Screen. Data for the mlh1 rad18 strain (AID 175)
# experimental.conditions: S. cerevisiae mlh1 rad18 strain growth inhibition, hits give high values; at 50.0 µM unless noted
Compounds without any hit were thinned out: in the full panel of roughly 79,000, 15% have a hit.
Assign growth inhibition to each entry below.
Numbers only, in %.

CCCCCP(=O)(O)O.[Cu+2]	-14.2
CC(C)CCC[C@@H](C)[C@H]1CC[C@H]2[C@@H]3CCC4=CC(=O)NCC[C@]4(C)[C@H]3CC[C@]12C	15.9
Cc1ccc(-c2nc3ccc(Cl)cc3[nH]2)cc1	42.1
CCO[C@@H]1OC(=O)[C@H]2C(c3ccccc3)=NO[C@@H]12	-4.15
S=c1c2[nH]cnc2ncn1CCSC1=NC=NC2=NC=NC21 (centres undefined)	-8.6
c1ccc2nc3c(cc2c1)NCC3	-20.9

Lab note: each molecule below needs its growth inhibition filled in.
1. CCN(CC)CCCCCCNc1cc(O)cc2cccnc12
2. CCOC(OCC)N1C(=O)C2(C(OCC)OCC)CC3C(OC(=O)N3N)c3cccc1c32 (centres undefined)
3. CC12OC3(C)C4CC1C1(C)OC4(C)C3C(O)C21 (centres undefined)

[14.4, -4.4, 10.3]

* * *

# procedure.details: NCI Yeast Anticancer Drug Screen. Data for the sgs1 mgt1 strain (AID 161);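 note: 0% = growth of cultures given vehicle only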
# experimental.conditions: S. cerevisiae sgs1 mgt1 strain, hits give high values; at 50.0 µM unless noted
About 79,000 compounds went through this panel and 15% of them were active in at least one assay; those are over-represented in the sample as a whole.
Assign growth inhibition to each entry below.
Answers are plain numbers, in %.

Lab note: each molecule below needs its growth inhibition filled in.
1. O=C(O)/C(I)=C(\I)c1ccccc1
2. O=C1c2ccccc2C(=O)c2cc3nc4c5ccccc5c5ccccc5c4nc3cc21
3. CC(C)CCC[C@@H](C)[C@H]1CC[C@H]2[C@@H]3CCC4=CC(=O)NCC[C@]4(C)[C@H]3CC[C@]12C
4. COc1ccc(OC2OC(CO)C(O)C(O)C2O)cc1 (configuration not stated)
5. CC(Br)CCCBr (configuration not stated)
6. O=C1CN(c2cccc(C(F)(F)F)c2)C(=O)CN1/N=C/c1ccc[nH]1

4.7
-27.2
34.6
-4.3
-21.1
9.45

* * *

# procedure.details: NCI Yeast Anticancer Drug Screen. Data for the bub3 strain (AID 167)
# experimental.conditions: S. cerevisiae bub3 mutant strain, hits give high values; at 50.0 µM unless noted
# Method: Growth inhibition of yeast strains with defined genetic alterations is measured as a screen for potential anti-cancer activity. Selected strains with alterations in DNA damage repair or cell cycle control were exposed to compounds and growth inhibition was measured relative to vehicle treated controls. The strain used in this assay is bub3
About 79,000 compounds went through this panel and 15% of them were active in at least one assay; those are over-represented in the sample as a whole.
assay.readout: growth inhibition (%)
One number for each entry, in %.

// worked examples, growth inhibition included
C=CCOC(=O)c1ccc(C(C)C)cc1	8
COc1ccc(C2NC3=C(CCCC3)N2)cc1	-3.9
CC1(C)C2CC(O)C1CCC2=O (stereo unspecified)	-21
CCOC(=O)C1=CN=C2C(=O)N(c3ccccc3)N(C)C2(C)C1=N (stereo unspecified)	-11.2
C[N+](C)(C)CCc1ccc(Cl)cc1	-0.05

Lab note: each compound below needs its growth inhibition filled in.
1. CCC(C)(O)c1cn(-c2ccc(Cl)cc2)nn1 (stereo unspecified)
2. O=C1CCC(c2nc3ccccc3[nH]2)N1Cc1ccccc1 (stereo unspecified)

1: -6.55; 2: 6.4

* * *

Assign growth inhibition to each entry below.
# procedure.details: NCI Yeast Anticancer Drug Screen. Data for the bub3 strain (AID 167)
# experimental.conditions: S. cerevisiae bub3 mutant strain, hits give high values; at 50.0 µM unless noted
Compounds without any hit were thinned out: in the full panel of roughly 79,000, 15% have a hit.
Numbers only, in %.

Lab note: each compound below needs its growth inhibition filled in.
1. O=C(CCCn1ccnc1[N+](=O)[O-])NCCn1cnc([N+](=O)[O-])n1
2. CN(Cc1ccc2nc(N)nc(N)c2c1)c1ccc(C(=O)NC(CCC(=O)O)C(=O)O)cc1 (stereo not drawn)
3. CCN(CC)CCn1c2cc3c(cc2c(=O)c2cccnc21)OCO3
4. CC(O)C(=O)OCCOc1ccc(Cl)cc1Cl (stereo not drawn)
5. Nc1nc(Cl)c(C=O)c(NCC2(CO)CC(CCc3ccccc3)C2)n1 (stereo not drawn)
6. S=C(NC1CCCCC1)SSSSC(=S)NC1CCCCC1
7. NC(=O)C(NCc1ccccc1)c1ccccc1 (stereo not drawn)

-4.8
-24.5
-34
31.3
-22
13.9
2.6

Lab note: each compound below needs its growth inhibition filled in.
1. Cc1ccc(C(=O)CC2=Nc3nnc(CCCCCCCc4nnc5n4C(=O)C(CC(=O)c4ccc(C)cc4)=N5)n3C2=O)cc1
2. CCN(CC)C(=S)Oc1ccc(OC(=S)N(CC)CC)cc1
3. O/N=C/c1ccco1
4. O=c1oc(-c2ccccc2)nc2c1sc1nc(-c3ccccc3)oc(=O)c12
5. O=C1C(=O)c2ccccc2C(O)=C1CN1CCOCC1
6. O=C(CC1=Nc2nnc(-c3nnc4n3C(=O)C(CC(=O)c3cccnc3)=N4)n2C1=O)c1cccnc1
7. C=C(C)C(C)OC(=O)Nc1ccccc1 (stereo not drawn)

-5.25
-2.85
-6.55
24.6
28
-6.35
-3.95

Lab note: each compound below needs its growth inhibition filled in.
1. Brc1cccc(C=NC23CC4CC(CC(C4)C2)C3)c1
2. CN(C)C(=S)S(=O)(=O)c1ccccc1
3. CN1C(C)(C)CC(=O)C(Br)C1(C)C (stereo not drawn)

-13.3
85.6
-6.75

* * *

# procedure.details: NCI Yeast Anticancer Drug Screen. Data for the bub3 strain (AID 167)
# experimental.conditions: S. cerevisiae bub3 mutant strain, hits give high values; at 50.0 µM unless noted
This is part of a sample that, as a whole, favours compounds with a hit. Of some 79,000 tested, about 15% had one in any assay.
Assign growth inhibition to each entry below.
Numbers only, in %.

OCC(O)Cc1ccccc1 (stereo unspecified)	-1.8
CCN1C(=O)C(=O)C(c2ccccc2)(c2ccccc2)C1=O	2.9
COC(=O)/C([O-])=C(\C(=O)OC)[n+]1cc(Br)cc2ccccc21	56.8

Lab note: each compound below needs its growth inhibition filled in.
1. COC(=O)N/N=C(/CCCC(=O)Nc1cccc([N+](=O)[O-])c1)C(C#N)c1ccc(CC#N)cc1 (stereo unspecified)
2. CC(=O)OC1CC2CC1C1OC21 (stereo unspecified)
3. OC/C(Br)=C(\Br)CO

1: 6.65; 2: -11.7; 3: -28.6

* * *

# procedure.details: NCI Yeast Anticancer Drug Screen. Data for the rad50 strain (AID 155);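 note: 0% = growth of vehicle-only cultures of the same strain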
# experimental.conditions: S. cerevisiae rad50 strain growth inhibition, hits give high values; at 50.0 µM unless noted
The panel holds about 79,000 compounds, 15% with a hit somewhere; the sample as a whole holds those more often.
assay.readout: growth inhibition (%)
Give bare numbers, in %.

CC1(C)C2CC(O)C1CCC2=O (configuration not stated)	-4.15
CC1CCC(OC(=O)CCC2CCCCC2)CC1 (configuration not stated)	-1.6
CCCCOc1c(Cl)c(Cl)cc(Cl)c1Cl	-10.1

Lab note: each compound below needs its growth inhibition filled in.
1. CN(CCOC(=O)Nc1ccccc1)N=O
2. Cc1ccc(S(=O)(=O)OC2CSS(=O)CC2OS(=O)(=O)c2ccc(C)cc2)cc1 (configuration not stated)
3. COc1ccc2cc(N3CCCC3)ccc2c1
4. CC(C(=O)O)N1C(=O)CNC1=O (configuration not stated)

9.35
12.8
7.8
-1.85

* * *

# procedure.details: NCI Yeast Anticancer Drug Screen. Data for the mlh1 rad18 strain (AID 175)
# experimental.conditions: S. cerevisiae mlh1 rad18 strain growth inhibition, hits give high values; at 50.0 µM unless noted
Compounds without any hit were thinned out: in the full panel of roughly 79,000, 15% have a hit.
assay.readout: growth inhibition (%)
Numbers only, in %.

// worked examples, growth inhibition included
O=[N+]([O-])C(C(Cl)=C(Cl)Cl)=C(N1CCOCC1)N1CCOCC1	1.85
O=C1CC(Cc2n[nH]c3c2CCCC3)CC(=O)N1	-7.75
Cc1ccc(-c2c3ccccc3cc3ccccc23)c(C)c1	11.8
CC(=O)Oc1c(C)c2c(c3ncccc13)OC(C)C2 (stereo not given)	34.8
O=C(Cc1ccccc1)NC/C=N/O	-4.75

Lab note: each compound below needs its growth inhibition filled in.
1. Cc1ccccc1C(=O)c1ccccc1C
2. CC(C)NC(=O)c1ccc(Cl)cc1Cl
3. CCOC(=O)[C@H]1Nc2c(cccc2[N+](=O)[O-])C2c3ccccc3CC21 (stereo not given in full)

1: -9.9; 2: 12; 3: 13.6

Lab note: each compound below needs its growth inhibition filled in.
1. OC1(C#CC#CC2(O)CCCCC2)CCCCC1
2. N#CC1CCC[N-]C1.N#CC1CCC[N-]C1.[Cl][Pt+2][Cl] (stereo not given)
3. CC1(C)C2CCC1(C)C(/C=N/NC(N)=O)C2 (stereo not given)
4. Cc1cc(O)c(C)c(C)c1O
5. Cc1c2cc[n+](C)c(C)c2cc2c1[nH]c1ccccc12
6. CC(=O)ONC(C(=O)C(C)(C)C)C(=O)C(C)(C)C

[4.2, 42.4, 12.8, 8.85, 37.8, -4.8]
